Here's a batch of compounds along with measured IC50 for Full length Human HDAC2 (Homo sapiens, UniProt Q92769).

Below: 3 compounds and their reported IC50.
> print(dat)
                                   compound  measured.value
1  Nc1ccc(-c2ccc(F)cc2F)nc1NC(=O)N1CCC(c2ccccc2)C1 (stereo not shown)       1 to 2 µM
2  Nc1ccc(-c2ccc(F)cc2F)nc1NC(=O)N1CCC(F)(c2ncccn2)C1 (stereo not shown)     0.5 to 1 µM
3  Nc1ccc(-c2ccc(F)cc2F)nc1NC(=O)N1CCC(Cc2cccnn2)C1 (stereo not shown)       1 to 2 µM

IN: Which measured IC50 belongs to Nc1ccc(-c2ccc(F)cc2)nc1NC(=O)N1CCC(F)(c2ncc(F)cn2)C1 (single isomer, unassigned) , tested on Full length Human HDAC2 (Homo sapiens, UniProt Q92769)?
OUT: 0.5 to 1 µM

IN: Now this one: Nc1ccc(-c2cccs2)nc1NC(=O)N1CCC(c2ncc(F)cn2)C1 (stereo not shown)
OUT: 1 to 2 µM

IN: Now this one: Nc1ccc(-c2ccc(F)s2)nc1NC(=O)N1CCC(F)(c2ncccn2)C1 (stereo not shown)
OUT: 1 to 2 µM

IN: Now this one: Cc1cnc(C2CCN(C(=O)Nc3nc(-c4ccc(F)cc4)ccc3N)C2)o1 (stereo not shown)
OUT: 1 to 2 µM

IN: Now this one: Nc1ccc(-c2ccc(F)cc2)nc1NC(=O)N1CCC(c2ncccn2)C1 (stereo not shown) [Compound 19]
OUT: < 0.5 µM

IN: Now this one: Nc1ccc(-c2ccc(F)cc2)nc1NC(=O)N1CCC(c2ncccn2)C1 (single isomer, unassigned) [Compound 19E1]
OUT: < 0.5 µM

IN: Now this one: Cc1ccnc(C2CCN(C(=O)Nc3nc(-c4ccc(F)cc4)ccc3N)C2)n1 (single isomer, unassigned)
OUT: 1 to 2 µM

IN: Now this one: Nc1ccc(-c2ccc(F)cc2F)nc1NC(=O)N1CCC(c2cccnc2)C1 (stereo not shown)
OUT: > 2 µM

IN: Now this one: Nc1ccc(-c2ccc(F)cc2F)nc1NC(=O)N1CCC(c2ncc(F)cn2)C1 (stereo not shown) [Compound 14]
OUT: 0.5 to 1 µM
